Values compiled from PubChem BioAssay (NCI).

tested on: PC-3 prostate; experiment: NCI tumour cell line growth inhibition, 48 h
Where a SMILES comes first, the peptide text is derived from it.
parameterMeasured: TGI

- molecule: "CC1C2CC(CC23OCC(CCl)O3)C1(C)C (stereo not given)"
  measured: "> 100 µM"
- molecule: "CCC(C)C1NC(=O)C(CCCCN)NC(=O)C(CCCCN)NC(=O)C(CC(C)C)NC(=O)C(CCCCN)NC(=O)C(C(C)CC)NC(=O)C(C(C)C)NC(=O)C(C(C)CC)NC(=O)C(CCCCN)NC(=O)C(CCCCN)NC(=O)C(C)NC(=O)C(CCCCN)NC(=O)C(CC(C)C)NC1=O (stereo not given) (cyclo(AKKIVIKLKKILK); configuration not given here)"
  measured: "8.52 µM"
- molecule: "c1ccc(P2c3ccccc3Nc3ccccc32)cc1"
  measured: "87.1 µM"
- molecule: "CCCCNC(=O)OCCN=C1c2ccccc2C(Br)C(Br)c2ccccc21 (stereo not given)"
  measured: "> 100 µM"

QUERY: Give TGI for this entry on PC-3 prostate: O=C(O)C(CCc1ccccc1)N1C(=O)c2ccccc2C1=O (stereo not given)
RESULT: > 100 µM

QUERY: Give TGI for this entry on PC-3 prostate: "O=S(=O)(Nc1nc2ccccc2n1S(=O)(=O)c1ccccc1)c1ccccc1"
RESULT: > 100 µM

QUERY: Give TGI for this entry on PC-3 prostate: "C/C(=N\Nc1nc2ccccc2o1)c1ccc2ccccc2n1"
RESULT: 4.94 µM

QUERY: Give TGI for this entry on PC-3 prostate: "COc1ccc(/C=C(/C(=O)N2CCCCC2)c2cc(OC)c(OC)c(OC)c2)cc1"
RESULT: > 100 µM

QUERY: Give TGI for this entry on PC-3 prostate: "CCOC(=O)c1cc(C)n(CN(CCO)Cn2nc(C(=O)OCC)cc2C)n1"
RESULT: > 100 µM

QUERY: Give TGI for this entry on PC-3 prostate: CC(CO)CCC(O)C(C)(O)C1CCC2(O)C3=CC(=O)C4CC(O)C(O)CC4(C)C3CCC12C (stereo not given)
RESULT: > 100 µM

* * *

system: TK-10 renal; assay: NCI tumour cell line growth inhibition, 48 h
Where a SMILES comes first, the peptide text is derived from it.
The compounds listed here are annotated with their TGI.

Use the examples below as a reference point.
- compound: "O=C(OCc1ccccc1)c1nc2ccccc2n1S(=O)(=O)c1ccccc1"
  TGI: "> 100 µM"
- compound: "COc1cc2c(cc1OCCCC(=O)Nc1cc(C(=O)Nc3cc(C(=O)Nc4cc(C(=O)NCCCN(C)C)n(C)n4)n(C)c3)n(C)c1)N=CC1CCCN1C2=O (centres undefined)"
  TGI: "39.4 µM"
- compound: "CCC(C)C1NC(=O)C(CCCCN)NC(=O)C(CCCCN)NC(=O)C(CC(C)C)NC(=O)C(CCCCN)NC(=O)C(C(C)CC)NC(=O)C(C(C)C)NC(=O)C(C(C)CC)NC(=O)C(CCCCN)NC(=O)C(CCCCN)NC(=O)C(C)NC(=O)C(CCCCN)NC(=O)C(CC(C)C)NC1=O (centres undefined) (cyclo(AKKIVIKLKKILK); configuration not given here)"
  TGI: "4.63 µM"
- compound: "CC1=CC(C)C(C)N(CC2=NCCN2)c2ccccc21 (centres undefined)"
  TGI: "> 100 µM"
- compound: "CCCCCCCC/C(=C\\C1=C(C)C(=O)C(OC)=C(OC)C1=O)C(=O)O"
  TGI: "> 100 µM"
- compound: "CC(NC(=O)OC(C)(C)C)C(=O)NC1CCCC1 (centres undefined)"
  TGI: "> 100 µM"
- compound: "CCN(CC)c1c(C(=O)/C=C/c2ccc(F)cc2)c(-c2ccccc2)nn(C)c1=O"
  TGI: "38.5 µM"
- compound: "CCOC(=O)C(C(=O)OCC)C1C=CCC2c3ccccc3COCC21 (centres undefined)"
  TGI: "> 100 µM"
- compound: "COC(=O)[C@@H]1c2[nH]c3ccccc3c2C[C@@H]2c3ccccc3NC(=O)[C@@H]21"
  TGI: "> 100 µM"
- compound: "Cn1cc(-c2csc(-c3c[nH]c4ccccc34)n2)c2cccnc21"
  TGI: "18.1 µM"

QUERY: Give reported TGI value for "CC(C)C(=O)NCC[C@@H](CNC(=O)OC(C)(C)C)NC(=O)OC(C)(C)C"
RESULT: > 100 µM

QUERY: Give reported TGI value for CCCCCCCCCCCCC(CC)CCCCC(=O)O (centres undefined)
RESULT: > 100 µM

QUERY: Give reported TGI value for "COc1ccc(N)c(C(=O)CCNC(C)=O)c1"
RESULT: > 100 µM
